A collection of compounds and their measured inhibition at 1 µM
- MEASUREMENT TARGET: S. aureus GyrB ATPase (Staphylococcus aureus, UniProt P0A0K8)
- Sequence (P0A0K8 whole entry): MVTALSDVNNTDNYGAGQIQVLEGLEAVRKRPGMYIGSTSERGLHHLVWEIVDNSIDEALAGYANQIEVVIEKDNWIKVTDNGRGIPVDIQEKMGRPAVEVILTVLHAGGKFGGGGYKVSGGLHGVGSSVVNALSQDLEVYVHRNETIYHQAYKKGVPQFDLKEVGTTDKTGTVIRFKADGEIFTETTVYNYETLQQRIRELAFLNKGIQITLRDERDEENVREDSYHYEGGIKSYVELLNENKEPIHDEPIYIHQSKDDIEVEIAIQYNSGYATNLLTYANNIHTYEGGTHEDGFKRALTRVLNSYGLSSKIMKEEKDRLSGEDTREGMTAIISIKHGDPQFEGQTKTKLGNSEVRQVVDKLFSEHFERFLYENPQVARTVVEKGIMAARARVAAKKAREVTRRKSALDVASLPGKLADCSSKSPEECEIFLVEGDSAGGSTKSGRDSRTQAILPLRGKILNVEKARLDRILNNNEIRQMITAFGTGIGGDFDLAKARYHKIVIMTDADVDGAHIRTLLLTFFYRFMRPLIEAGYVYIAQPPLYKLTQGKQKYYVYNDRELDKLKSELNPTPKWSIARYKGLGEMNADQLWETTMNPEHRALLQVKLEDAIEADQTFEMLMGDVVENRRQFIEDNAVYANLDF
- Sequence (P0AES4 whole entry, further chain): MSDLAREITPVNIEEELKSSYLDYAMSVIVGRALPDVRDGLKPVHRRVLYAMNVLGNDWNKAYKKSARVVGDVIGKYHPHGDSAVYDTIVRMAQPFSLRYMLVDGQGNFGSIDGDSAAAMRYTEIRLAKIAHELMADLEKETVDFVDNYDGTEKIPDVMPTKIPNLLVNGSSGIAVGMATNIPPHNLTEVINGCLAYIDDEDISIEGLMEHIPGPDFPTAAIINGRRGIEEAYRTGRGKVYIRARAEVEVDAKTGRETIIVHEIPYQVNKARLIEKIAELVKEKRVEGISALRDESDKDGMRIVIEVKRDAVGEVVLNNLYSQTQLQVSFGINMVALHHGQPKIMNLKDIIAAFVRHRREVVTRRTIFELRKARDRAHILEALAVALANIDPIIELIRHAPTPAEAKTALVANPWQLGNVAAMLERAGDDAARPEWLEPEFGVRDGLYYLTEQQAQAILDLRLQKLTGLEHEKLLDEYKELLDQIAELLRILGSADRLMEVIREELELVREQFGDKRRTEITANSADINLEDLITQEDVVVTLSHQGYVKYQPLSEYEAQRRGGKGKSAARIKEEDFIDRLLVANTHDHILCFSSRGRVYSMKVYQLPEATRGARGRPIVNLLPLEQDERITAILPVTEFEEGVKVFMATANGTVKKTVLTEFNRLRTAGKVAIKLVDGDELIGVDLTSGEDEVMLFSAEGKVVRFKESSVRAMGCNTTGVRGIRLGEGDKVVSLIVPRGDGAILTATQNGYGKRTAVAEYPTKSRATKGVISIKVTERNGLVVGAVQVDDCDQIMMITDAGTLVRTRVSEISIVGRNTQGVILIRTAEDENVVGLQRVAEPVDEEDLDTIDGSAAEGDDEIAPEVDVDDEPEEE
- ASSAY SUMMARY: biochemical
- CONDITION LABEL: compound at 1 μM; one value per test if tested more than once; read-out: % Inhibition of S. aureus GyrB ATPase
EXPERIMENTAL ENDPOINT: inhibition at 1 µM (%)

INSERT INTO results (structure_smiles, val) VALUES
  ('CCNC(=O)Nc1cc(-c2nc(C(F)(F)F)cs2)c(-c2ccc3c(=O)c(C(=O)O)cn(CC4CC4)c3c2)cn1', 98),
  ('CCNC(=O)Nc1cc(-c2nc(C(F)(F)F)cs2)c(-c2ccc3c(=O)c(C(=O)NCCO)cn(CC4CC4)c3c2)cn1', 99),
  ('CCNC(=O)Nc1cc(-c2nc(C(F)(F)F)cs2)c(-c2ccc3c(c2)c(=O)c(C(=O)N2CCN(S(=O)(=O)N(C)C)CC2)cn3CCN(C)C)cn1', 105),
  ('CCNC(=O)Nc1cc(-c2nc(C(F)(F)F)cs2)c(-c2ccc3c(=O)c(C(=O)NCCN4CCOCC4)cn(CCO)c3c2)cn1', 100),
  ('COCCn1cc(C(=O)NCCO)c(=O)c2cc(-c3cnc(NC(=O)NC(C)C)cc3-c3nc(C(F)(F)F)cs3)ccc21', 97),
  ('CCNC(=O)Nc1cc(-c2nc(C(F)(F)F)cs2)c(-c2ccc3c(c2)c(=O)c(C(=O)N2CCNCC2)cn3C2CN(C)C2)cn1', 112);

* * *

A collection of molecules and their measured inhibition at 1 µM
- MEASUREMENT TARGET: S. aureus GyrB ATPase (Staphylococcus aureus, UniProt P0A0K8)
- ASSAY SUMMARY: biochemical
- CONDITION LABEL: compound at 1 μM; one value per test if tested more than once; read-out: % Inhibition of S. aureus GyrB ATPase
EXPERIMENTAL ENDPOINT: inhibition at 1 µM (%)

INSERT INTO assay_data (structure_smiles, experimental_endpoint, val) VALUES
  ('CCNC(=O)Nc1cc(-c2nc(C(F)(F)F)cs2)c(-c2ccc3c(=O)c(C(=O)NCCN(C)C)cn(CCOC)c3c2)cn1', 'inhibition at 1 µM', 98),
  ('CCNC(=O)Nc1cc(-c2nc(-c3ccccc3)cs2)c(-c2ccc3c(c2)c(=O)c(C(=O)O)cn3CC)cn1', 'inhibition at 1 µM', 101),
  ('CCNC(=O)Nc1cc(-c2nc(C(F)(F)F)cs2)c(-c2ccc3c(c2)c(=O)c(C(=O)O)cn3CCCOC)cn1', 'inhibition at 1 µM', 93),
  ('CCNC(=O)Nc1cc(-c2nc(C(F)(F)F)cs2)c(-c2ccc3c(c2)c(=O)c(C(=O)NC)cn3CC)cn1', 'inhibition at 1 µM', 100);

* * *

- MEASUREMENT TARGET: S. aureus GyrB ATPase (Staphylococcus aureus, UniProt P0A0K8)
- ASSAY SUMMARY: biochemical
- CONDITION LABEL: compound at 1 μM; one value per test if tested more than once; read-out: % Inhibition of S. aureus GyrB ATPase
Where a name gives a salt, the structure may show the parent alone.
EXPERIMENTAL ENDPOINT: inhibition at 1 µM (%)

INSERT INTO measurements (compound, measurement_target, val) VALUES
  ('CCNC(=O)Nc1cc(-c2nc(C(F)(F)F)cs2)c(-c2ccc3c(=O)c(C(=O)NCCCO)cn(Cc4cccnc4)c3c2)cn1', 'S. aureus GyrB ATPase (Staphylococcus aureus, UniProt P0A0K8)', 92),
  ('CCNC(=O)Nc1cc(-c2nc(C(F)(F)F)cs2)c(-c2ccc3c(c2)c(=O)c(C(=O)N2CCN(S(C)(=O)=O)CC2)cn3C2CN(C)C2)cn1', 'S. aureus GyrB ATPase (Staphylococcus aureus, UniProt P0A0K8)', 106),
  ('CCNC(=O)Nc1cc(-c2nc(C(F)(F)F)cs2)c(-c2ccc3c(c2)c(=O)c(C(=O)O)cn3[C@@H](CO)Cc2ccc(O)cc2)cn1', 'S. aureus GyrB ATPase (Staphylococcus aureus, UniProt P0A0K8)', 110),
  ('CCCn1cc(C(=O)NCCN(C)C)c(=O)c2ccc(-c3cnc(NC(=O)NCC)cc3-c3nc(C(F)(F)F)cs3)cc21', 'S. aureus GyrB ATPase (Staphylococcus aureus, UniProt P0A0K8)', 96),
  ('CCNC(=O)Nc1cc(-c2nc(C(F)(F)F)cs2)c(-c2ccc3c(c2)c(=O)c(C(=O)NCCOC)cn3C2CC2)cn1', 'S. aureus GyrB ATPase (Staphylococcus aureus, UniProt P0A0K8)', 96),
  ('CCNC(=O)Nc1cc(-c2nc(C(F)(F)F)cs2)c(-c2ccc3c(c2)c(=O)c(C(=O)O)cn3CC2CCN(CCN3CCOCC3)C2)cn1 (stereo not drawn)', 'S. aureus GyrB ATPase (Staphylococcus aureus, UniProt P0A0K8)', 105),
  ('CCNC(=O)Nc1cc(-c2nc(C(F)(F)F)cs2)c(-c2ccc3c(c2)c(=O)c(C(=O)O)cn3C[C@H]2CCNC2)cn1', 'S. aureus GyrB ATPase (Staphylococcus aureus, UniProt P0A0K8)', 116),
  ('CCNC(=O)Nc1cc(-c2nc(C(F)(F)F)cs2)c(-c2ccc3c(c2)c(=O)c(C(=O)NC2CC2)cn3C2CC2)cn1', 'S. aureus GyrB ATPase (Staphylococcus aureus, UniProt P0A0K8)', 97),
  ('CCNC(=O)Nc1cc(-c2nc(C(F)(F)F)cs2)c(-c2ccc3c(=O)c(C(=O)NC)cn(CC4CC4)c3c2)cn1', 'S. aureus GyrB ATPase (Staphylococcus aureus, UniProt P0A0K8)', 86),
  ('CCNC(=O)Nc1cc(-c2nc(C(F)(F)F)cs2)c(-c2ccc3c(c2)c(=O)c(C(=O)O)cn3[C@@H]2CCCN(CCN(CC)CC)C2)cn1 [Example 288, trifluoroacetate]', 'S. aureus GyrB ATPase (Staphylococcus aureus, UniProt P0A0K8)', 99),
  ('CCNC(=O)Nc1cc(-c2nc(C(F)(F)F)cs2)c(-c2ccc3c(=O)c(C(=O)NCCN4CCN(C)CC4)cn(CCO)c3c2)cn1', 'S. aureus GyrB ATPase (Staphylococcus aureus, UniProt P0A0K8)', 87),
  ('CCNC(=O)Nc1cc(-c2nc(C(F)(F)F)cs2)c(-c2ccc3c(c2)c(=O)c(C(=O)O)cn3[C@@H]2CCCC[C@@H]2O)cn1 (relative stereo)', 'S. aureus GyrB ATPase (Staphylococcus aureus, UniProt P0A0K8)', 106);

* * *

A collection of compounds and their measured inhibition at 1 µM
- MEASUREMENT TARGET: S. aureus GyrB ATPase (Staphylococcus aureus, UniProt P0A0K8)
- ASSAY SUMMARY: biochemical
- CONDITION LABEL: compound at 1 μM; one value per test if tested more than once; read-out: % Inhibition of S. aureus GyrB ATPase
- Excerpt: S. aureus GyrB ATPase Inhibition Activity: Compounds may be tested for inhibition of S. aureus GyrB ATPase activity using an ammonium molybdate/malachite green-based phosphate detection assay (Lanzetta, P. A., L. J. Alvarez, P. S. Reinach, and O. A. Candia, 1979, 100: 95-97). […] An IC50 measurement of compound potency for each compound can be determined from reactions performed in the presence of 10 different compound concentrations.
EXPERIMENTAL ENDPOINT: inhibition at 1 µM (%)

INSERT INTO assay_data (compound, experimental_endpoint, unit_string, val) VALUES
  ('CCNC(=O)Nc1cc(-c2nc(C(F)(F)F)cs2)c(-c2ccc3c(=O)c(C(=O)NCCO)cn(CC(C)C)c3c2)cn1 [Example 342]', 'inhibition at 1 µM', '%', 99),
  ('CCNC(=O)Nc1cc(-c2nc(C(F)(F)F)cs2)c(-c2ccc3c(c2)c(=O)c(C(=O)O)cn3C(C)CN(C)C)cn1 (stereo not shown) [Example 126]', 'inhibition at 1 µM', '%', 117),
  ('CCNC(=O)Nc1cc(-c2nc(C(F)(F)F)cs2)c(-c2ccc3c(c2)c(=O)c(C(=O)O)cn3C2CCOCC2)cn1 [Example 321]', 'inhibition at 1 µM', '%', 100),
  ('CCNC(=O)Nc1cc(-c2nc(C(F)(F)F)cs2)c(-c2ccc3c(=O)c(C(=O)NCCN4CCN(C)CC4)cn(CCC(C)C)c3c2)cn1 [Example 340]', 'inhibition at 1 µM', '%', 93),
  ('CCNC(=O)Nc1cc(-c2nc(C(F)(F)F)cs2)c(-c2ccc3c(c2)c(=O)c(C(=O)O)cn3C[C@H]2CCN(CC)C2)cn1 [Example 249]', 'inhibition at 1 µM', '%', 113),
  ('CCCNC(=O)Nc1cc(-c2nc(C(F)(F)F)cs2)c(-c2ccc3c(c2)c(=O)c(C(=O)N2CCN(C)CC2)cn3C2CN(C)C2)cn1 [Example 172]', 'inhibition at 1 µM', '%', 107),
  ('CCNC(=O)Nc1cc(-c2nc(C(F)(F)F)cs2)c(-c2ccc3c(=O)c(C(=O)O)cn(CC)c3c2)cn1 [Example 9]', 'inhibition at 1 µM', '%', 106),
  ('CCNC(=O)Nc1cc(-c2nc(C(F)(F)F)cs2)c(-c2ccc3c(c2)c(=O)c(C(=O)N2CCN(C)CC2)cn3C(COC)COC)cn1 [Example 143]', 'inhibition at 1 µM', '%', 95),
  ('CCNC(=O)Nc1cc(-c2nc(C(F)(F)F)cs2)c(-c2ccc3c(c2)c(=O)c(C(=O)NCCO)cn3Cc2noc(C3CC3)n2)cn1 [Example 329]', 'inhibition at 1 µM', '%', 97),
  ('CCCNC(=O)Nc1cc(-c2nc(C(F)(F)F)cs2)c(-c2ccc3c(c2)c(=O)c(C(=O)NCCN(C)C)cn3CCC2CCOCC2)cn1 [Example 232]', 'inhibition at 1 µM', '%', 98),
  ('CCNC(=O)Nc1cc(-c2nc(C(F)(F)F)cs2)c(-c2ccc3c(c2)c(=O)c(C(=O)O)cn3[C@H](CO)C(C)(C)C)cn1 [Example 81]', 'inhibition at 1 µM', '%', 96),
  ('CCNC(=O)Nc1cc(-c2nc(C(F)(F)F)cs2)c(-c2ccc3c(c2)c(=O)c(C(=O)O)cn3[C@@H]2CCCN(Cc3cccn3C)C2)cn1 [Example 282]', 'inhibition at 1 µM', '%', 105),
  ('CCNC(=O)Nc1cc(-c2nc(C(F)(F)F)cs2)c(-c2ccc3c(c2)c(=O)c(C(=O)O)cn3[C@@H]2CCN(C)C2)cn1 [Example 246]', 'inhibition at 1 µM', '%', 104);

Values compiled from patent US8283361B2.
